- Read-out: TIMP metallopeptidase inhibitor 2 (TIMP2), TIMP2 (gene 7077)
- assayNotes: BSK_KF3CT_TIMP2: BioMAP Diversity Plus: KF3CT Assay for TIMP metallopeptidase inhibitor 2 (TIMP2) Biomarker Activity (AID 2283071)
- testConditions: primary human keratinocytes with fibroblasts; actives raise or lower the signal
Calls of active or inactive are those of the source. How the source made its calls: active means hit-call score of the fitted dose curve at least 0.9, where 1 is the maximum; inactive means score below 0.9.
Thanks in advance; please answer with one of these: active, inactive

What was the test verdict on Oc1c(I)cc(I)cc1I ?
active

Recorded call for CCOC(=O)/C=C(C)/C=C/C[C@@H](C)CCCC(C)C ?
active

Recorded test call requested for ClC1(Cl)C2(Cl)C3(Cl)C4(Cl)C(Cl)(Cl)C5(Cl)C3(Cl)C1(Cl)C5(Cl)C24Cl (configuration not stated)
inactive

I would be grateful if you could indicate the recorded call for O=C(O)C(F)(F)C(F)(F)C(F)(F)C(F)(F)C(F)(F)C(F)(F)F .
inactive

Test call, this molecule: C[C@@H]1C[C@@H]([C@H](O)CC2CC(=O)NC(=O)C2)C(=O)[C@@H](C)C1
active

Which result was noted for this molecule in the test: CCC(C)(C)c1ccc(O)c(C(C)(C)CC)c1
active

Give the logged outcome of this assay for the following molecule: Nc1ccc(-c2ccc(N)c(Cl)c2)cc1Cl
inactive

What did this assay record as the result for CCN1CCC2(CC1)COc1cc3c(cc12)N(C(=O)c1ccc(-c2ccc(-c4nnc(C)o4)cc2C)cc1)CC3 ?
active

// param item: CC(C)c1ccc(CO)cc1 ; yields the recorded call
inactive

What classification did Nc1cccc2ccccc12 end up with in this test?
inactive

Any idea what this test logged for CC(C)CCCCCCOC(=O)c1ccccc1C(=O)OCCCCCCC(C)C ?
inactive

Could you check what this test reported for O=[N+]([O-])c1ccc2c3c(cccc13)CC2 ?
active

Could you check what this test reported for O=C(O)C(Cl)(Cl)Cl ?
inactive

Given CC(=O)[O][Hg][c]1ccccc1 , state the outcome it received in this test.
active

Can you look up the reported call for CCOP(=S)(OCC)Oc1ccc(S(C)=O)cc1 (configuration not stated) for me?
inactive

Check the results log: what was the call for CC1(C)Cc2cccc(O)c2O1 ?
inactive

Could you check what this test reported for C(=NC1CCCCC1)=NC1CCCCC1 ?
active

Which outcome was entered for the molecule CCOP(=S)(OCC)SCSP(=S)(OCC)OCC in this test?
inactive

Short answer needed: outcome of this test for O=[N+]([O-])c1ccc(O)c([N+](=O)[O-])c1 ?
inactive

Identify the outcome logged in this assay for the molecule shown: NC(=O)O
inactive

Test call, this molecule: ClCC(Cl)CCl
inactive

Given O=Cc1cccc(Oc2ccccc2)c1 , state the outcome it received in this test.
inactive

* * *

- tgt: Estrogen receptor (Homo sapiens) + Estrogen receptor beta (Homo sapiens) (UniProt P03372+Q92731)
- Sequence (P03372 whole entry, looked up, the tested form may be a part): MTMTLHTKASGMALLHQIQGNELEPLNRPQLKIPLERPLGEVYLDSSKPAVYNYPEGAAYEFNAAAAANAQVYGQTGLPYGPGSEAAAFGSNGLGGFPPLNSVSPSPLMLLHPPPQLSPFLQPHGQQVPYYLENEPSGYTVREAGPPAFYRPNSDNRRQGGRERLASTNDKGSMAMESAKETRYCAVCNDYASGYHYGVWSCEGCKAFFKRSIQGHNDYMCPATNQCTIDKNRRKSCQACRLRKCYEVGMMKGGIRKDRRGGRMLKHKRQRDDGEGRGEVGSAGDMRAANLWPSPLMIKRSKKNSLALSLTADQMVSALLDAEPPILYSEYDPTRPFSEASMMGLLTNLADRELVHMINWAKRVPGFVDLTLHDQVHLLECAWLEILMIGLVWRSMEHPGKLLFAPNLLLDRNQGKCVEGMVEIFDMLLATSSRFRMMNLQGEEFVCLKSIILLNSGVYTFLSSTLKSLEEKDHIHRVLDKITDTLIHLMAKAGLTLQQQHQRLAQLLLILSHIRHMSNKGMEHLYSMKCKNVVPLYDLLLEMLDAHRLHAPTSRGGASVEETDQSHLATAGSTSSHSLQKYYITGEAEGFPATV
- Sequence (Q92731 whole entry, looked up, the tested form may be a part): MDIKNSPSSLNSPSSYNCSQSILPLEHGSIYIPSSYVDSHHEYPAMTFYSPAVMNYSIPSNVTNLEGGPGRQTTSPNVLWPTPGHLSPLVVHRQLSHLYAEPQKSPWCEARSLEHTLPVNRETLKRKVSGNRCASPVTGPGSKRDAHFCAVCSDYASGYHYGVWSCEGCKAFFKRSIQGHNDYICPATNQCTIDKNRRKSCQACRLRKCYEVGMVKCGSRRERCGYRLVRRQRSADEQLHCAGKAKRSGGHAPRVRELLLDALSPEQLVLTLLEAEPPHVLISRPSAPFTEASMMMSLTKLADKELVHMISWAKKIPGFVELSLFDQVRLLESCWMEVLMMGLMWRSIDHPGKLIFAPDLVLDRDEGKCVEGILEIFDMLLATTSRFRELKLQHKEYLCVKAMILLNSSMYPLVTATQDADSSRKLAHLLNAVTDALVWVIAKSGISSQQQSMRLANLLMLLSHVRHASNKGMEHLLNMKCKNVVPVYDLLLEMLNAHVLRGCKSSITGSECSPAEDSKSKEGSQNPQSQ
- assayNotes: OT_ER_ERaERb_1440: Odyssey Thera (OT) 24-hour HEK293T Protein-Complementation Assay for Estrogen Receptor-alpha/-beta Homodimer (AID 2283356);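 further: heteromer of ER alpha and ER beta binding domains; hits raise reporter fluorescence and both agonists and antagonists give an increase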
Inconclusive results are not listed. The source made the active and inactive calls. The calls were made as follows: active = hit-call score of the fitted dose curve at least 0.9, where 1 is the maximum; inconclusive = response in the unintended direction; inactive = score below 0.9.
Hello, when you answer, please use one of the following outcomes: class 1 for active, class 0 for inactive

What did this assay record as the result for Cl/C=C\C[N+]12CN3CN(CN(C3)C1)C2 ?
class 1

Given CCC(C)(C)c1ccc(O)c(C(C)(C)CC)c1 , state the outcome it received in this test.
class 0

Hey, what did the test say about CC(C)(c1ccccc1)c1ccc(O)c(C(C)(C)c2ccccc2)c1 ?
class 1

Hi, do you know how CCC(=O)C(CC(C)N(C)C)(c1ccccc1)c1ccccc1 (stereo unspecified) came out in this test?
class 0

I would be grateful if you could indicate the recorded call for NNC(=S)NN .
class 0

Short answer needed: outcome of this test for Cn1sc(Cl)cc1=O ?
class 0

Check the results log: what was the call for C=CC#N ?
class 0

What was the test verdict on CC(C)C1CCC(Cc2ccc(Cl)cc2)C1(O)Cn1cncn1 (stereo unspecified) ?
class 1

Recorded call for CNC(=O)O/N=C/C(C)(C)S(C)=O (stereo unspecified) ?
class 0

Please let me know the test result on file for C=C(C)C(=O)[O][Sn]([CH2]CCC)([CH2]CCC)[CH2]CCC .
class 0

GET /call?item= N#CN=C(N)N returns the recorded outcome of this test.
class 0

What did this assay record as the result for CCOP(=S)(OCC)Oc1nc(Cl)c(Cl)cc1Cl ?
class 1

What classification did Clc1ccc(C2(Cn3cncn3)CC(Br)CO2)c(Cl)c1 (stereo unspecified) end up with in this test?
class 1

Recorded call for COP(=S)(OC)Oc1ccc(Sc2ccc(OP(=S)(OC)OC)cc2)cc1 ?
class 1

Could you check what this test reported for COc1cc(OC)nc(NC(=O)NS(=O)(=O)c2ncccc2C(=O)N(C)C)n1 ?
class 0

Which outcome was assigned to C[C@H]1CCCC(=O)CCC/C=C/c2cc(O)cc(O)c2C(=O)O1 in this test?
class 1
